From: ChEMBL document CHEMBL1134591

Target: Interstitial collagenase (Homo sapiens, UniProt P03956)
MEASURE: IC50 (nM)
Entry rule: numbers only, all in nM.

Query: IC50; subject: COc1ccc(S(=O)(=O)N(CC(=O)N2CCOCC2)C(CCSCc2ccccc2)C(=O)NO)cc1 (centres undefined)
532

How about this compound: COc1ccc(S(=O)(=O)N(CC(=O)NCc2ccccc2)C(CCSCc2ccccc2)C(=O)NO)cc1 (centres undefined)
51

How about this compound: COc1ccc(S(=O)(=O)N(CC(C)C)C(CCS(=O)(=O)Cc2ccccc2)C(=O)NO)cc1 (centres undefined)
396

How about this compound: COc1ccc(S(=O)(=O)N(CC(C)C)C(CCSCc2cccnc2)C(=O)NO)cc1 (centres undefined)
126

---

Assign IC50 to each entry below.
Target chain: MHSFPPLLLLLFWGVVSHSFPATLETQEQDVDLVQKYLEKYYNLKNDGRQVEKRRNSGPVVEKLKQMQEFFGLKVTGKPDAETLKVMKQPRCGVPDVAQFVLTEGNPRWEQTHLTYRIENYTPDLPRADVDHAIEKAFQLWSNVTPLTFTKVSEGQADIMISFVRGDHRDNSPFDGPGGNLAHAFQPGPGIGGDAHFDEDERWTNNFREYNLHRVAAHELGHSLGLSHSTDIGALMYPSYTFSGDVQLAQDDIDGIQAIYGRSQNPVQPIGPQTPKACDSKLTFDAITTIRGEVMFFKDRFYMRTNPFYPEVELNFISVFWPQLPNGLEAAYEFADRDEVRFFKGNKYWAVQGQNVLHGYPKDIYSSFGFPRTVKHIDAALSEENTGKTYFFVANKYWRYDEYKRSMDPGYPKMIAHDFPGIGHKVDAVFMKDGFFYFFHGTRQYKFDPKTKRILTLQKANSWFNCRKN
Entry rule: numbers only, all in nM.

Query: IC50; subject: COc1ccc(S(=O)(=O)N(CC(C)C)C(CCSCc2ccccc2)C(=O)NO)cc1 (stereo not given)
104

How about this compound: CC(C)CN(C(CCSCc1ccccc1)C(=O)NO)S(=O)(=O)c1ccc(Br)cc1 (stereo not given)
164

How about this compound: COc1ccc(S(=O)(=O)N(CC(=O)NCc2cc(OC)cc(OC)c2)C(CCSCc2ccccc2)C(=O)NO)cc1 (stereo not given)
36

How about this compound: COc1ccc(S(=O)(=O)N(CC(C)C)C(CCSCc2cccc(OC)c2)C(=O)NO)cc1 (stereo not given)
297

How about this compound: COc1ccc(S(=O)(=O)N(CC(C)C)C(CCSCc2ccsc2)C(=O)NO)cc1 (stereo not given)
188

---

Below are IC50 values recorded for Matrix metalloproteinase-9 (Homo sapiens).
Entry rule: numbers only, all in nM.

Query: IC50; subject: COc1ccc(S(=O)(=O)N(CC(=O)NCc2cccnc2)C(CCSCc2ccccc2)C(=O)NO)cc1 (stereo not given)
0.2

How about this compound: COc1ccc(CNC(=O)CN(C(CCSCc2ccccc2)C(=O)NO)S(=O)(=O)c2ccc(OC)cc2)cc1 (stereo not given)
0.2

How about this compound: CC(C)CN(C(CCSCc1ccccc1)C(=O)NO)S(=O)(=O)c1ccc(-c2ccccc2)cc1 (stereo not given)
2.5

How about this compound: COc1ccc(S(=O)(=O)N(CC(=O)NCc2ccccc2)C(CCSCc2ccccc2)C(=O)NO)cc1 (stereo not given)
0.2

How about this compound: COc1ccc(S(=O)(=O)N(CC(C)C)C(CCSCc2ccsc2)C(=O)NO)cc1 (stereo not given)
1

---

Below are IC50 values recorded for 72 kDa type IV collagenase (Homo sapiens, UniProt P08253).
Entry rule: numbers only, all in nM.

Query: IC50; subject: COc1ccc(S(=O)(=O)N(CC(C)C)C(CCSCc2cccnc2)C(=O)NO)cc1 (configuration not stated)
6.3

How about this molecule: COc1ccc(S(=O)(=O)N(CC(=O)NCc2ccccc2)C(CCSCc2ccccc2)C(=O)NO)cc1 (configuration not stated)
0.7

How about this molecule: COc1ccc(S(=O)(=O)N(CC(C)C)C(CCSCc2cccc(OC)c2)C(=O)NO)cc1 (configuration not stated)
3.78

How about this molecule: COc1ccc(S(=O)(=O)N(CC(C)C)C(CCSCc2c(F)c(F)c(F)c(F)c2F)C(=O)NO)cc1 (configuration not stated)
1810

How about this molecule: COc1ccc(S(=O)(=O)N(CC(C)C)C(CCSCc2ccsc2)C(=O)NO)cc1 (configuration not stated)
3.2

How about this molecule: COc1ccc(S(=O)(=O)N(CC(=O)NC2CCCCC2)C(CCSCc2ccccc2)C(=O)NO)cc1 (configuration not stated)
1

How about this molecule: CC(C)CN(C(CCSCc1ccccc1)C(=O)NO)S(=O)(=O)c1ccc(-c2ccccc2)cc1 (configuration not stated)
4.1

How about this molecule: COc1ccc(S(=O)(=O)N(CC(=O)NCc2c(OC)cc(OC)cc2OC)C(CCSCc2ccccc2)C(=O)NO)cc1 (configuration not stated)
1.2

How about this molecule: COc1ccc(S(=O)(=O)N(CC(=O)N2CCOCC2)C(CCSCc2ccccc2)C(=O)NO)cc1 (configuration not stated)
16

How about this molecule: COc1ccc(S(=O)(=O)N(CC(=O)NC(c2ccccc2)c2ccccc2)C(CCSCc2ccccc2)C(=O)NO)cc1 (configuration not stated)
2.3

How about this molecule: COc1ccc(S(=O)(=O)N(CC(C)C)C(CCS(=O)(=O)Cc2ccccc2)C(=O)NO)cc1 (configuration not stated)
4.22

How about this molecule: COc1ccc(S(=O)(=O)N(CC(=O)NCc2cccnc2)C(CCSCc2ccccc2)C(=O)NO)cc1 (configuration not stated)
1.2

---

Target: Collagenase 3 (Homo sapiens, UniProt P45452)
MEASURE: IC50 (nM)
Entry rule: numbers only, all in nM.

Query: IC50; subject: CC(C)CN(C(CCSCc1ccccc1)C(=O)NO)S(=O)(=O)c1ccc(Oc2ccccc2)cc1 (stereo not given)
3.2

How about this compound: COc1ccc(S(=O)(=O)N(CC(C)C)C(CCSCc2c(F)c(F)c(F)c(F)c2F)C(=O)NO)cc1 (stereo not given)
407

How about this compound: COc1ccc(S(=O)(=O)N(CC(=O)NC2CCCCC2)C(CCSCc2ccccc2)C(=O)NO)cc1 (stereo not given)
0.8

How about this compound: COc1ccc(S(=O)(=O)N(CC(=O)NCc2c(OC)cc(OC)cc2OC)C(CCSCc2ccccc2)C(=O)NO)cc1 (stereo not given)
1.6

How about this compound: COc1ccc(S(=O)(=O)N(CC(C)C)C(CCSCc2cccc(OC)c2)C(=O)NO)cc1 (stereo not given)
5.3

How about this compound: COc1ccc(S(=O)(=O)N(CC(C)C)C(CCS(=O)(=O)Cc2ccccc2)C(=O)NO)cc1 (stereo not given)
11.8

How about this compound: COc1ccc(S(=O)(=O)N(CC(=O)NC(c2ccccn2)c2ccccn2)C(CCSCc2ccccc2)C(=O)NO)cc1 (stereo not given)
0.4

How about this compound: CCC(C(=O)NO)N(CC(C)C)S(=O)(=O)c1ccc(OC)cc1 (stereo not given)
96

How about this compound: COc1ccc(S(=O)(=O)N(CC(=O)N2CCOCC2)C(CCSCc2ccccc2)C(=O)NO)cc1 (stereo not given)
23

How about this compound: CC(C)CN(C(CCSCc1ccccc1)C(=O)NO)S(=O)(=O)c1ccc(-c2ccccc2)cc1 (stereo not given)
3.8

---

Molecular target: Matrix metalloproteinase-9 (Homo sapiens, UniProt P14780)
Sequence (P14780 whole entry): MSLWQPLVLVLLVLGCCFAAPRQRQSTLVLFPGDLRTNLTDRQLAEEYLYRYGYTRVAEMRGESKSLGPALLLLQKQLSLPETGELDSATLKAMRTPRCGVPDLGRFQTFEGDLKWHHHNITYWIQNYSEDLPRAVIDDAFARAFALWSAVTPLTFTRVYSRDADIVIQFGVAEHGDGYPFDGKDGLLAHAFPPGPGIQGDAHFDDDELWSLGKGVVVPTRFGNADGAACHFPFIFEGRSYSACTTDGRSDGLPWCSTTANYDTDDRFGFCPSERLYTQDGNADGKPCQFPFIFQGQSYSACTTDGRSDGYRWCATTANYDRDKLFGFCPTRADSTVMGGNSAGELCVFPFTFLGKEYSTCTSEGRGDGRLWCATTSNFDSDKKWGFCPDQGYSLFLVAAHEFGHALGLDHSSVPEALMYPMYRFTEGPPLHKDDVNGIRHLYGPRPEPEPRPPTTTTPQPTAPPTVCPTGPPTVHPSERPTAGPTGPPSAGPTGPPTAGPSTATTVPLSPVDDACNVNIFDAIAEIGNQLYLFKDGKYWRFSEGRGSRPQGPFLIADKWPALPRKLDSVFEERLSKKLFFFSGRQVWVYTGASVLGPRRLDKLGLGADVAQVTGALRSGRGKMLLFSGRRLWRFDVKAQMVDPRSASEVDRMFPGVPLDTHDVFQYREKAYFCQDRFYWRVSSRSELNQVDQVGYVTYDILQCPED
Assign IC50 to each entry below.

Query: IC50; subject: CC(C)CN(C(CCSCc1ccccc1)C(=O)NO)S(=O)(=O)c1ccc(Oc2ccccc2)cc1 (stereo not given)
0.5 nM

How about this molecule: COc1ccc(S(=O)(=O)N(CC(C)C)C(CCSCc2cccnc2)C(=O)NO)cc1 (stereo not given)
3 nM

How about this molecule: COc1ccc(S(=O)(=O)N(CC(=O)NC(C2CCCCC2)C2CCCCC2)C(CCSCc2ccccc2)C(=O)NO)cc1 (stereo not given)
1.88 nM

How about this molecule: COc1ccc(S(=O)(=O)N(CC(C)C)C(CCSCc2c(F)c(F)c(F)c(F)c2F)C(=O)NO)cc1 (stereo not given)
149 nM

How about this molecule: COc1ccc(S(=O)(=O)N(CC(C)C)C(CCSCc2ccccc2)C(=O)NO)cc1 (stereo not given)
< 0.1 nM

---

Below are IC50 values recorded for UniProt:P45452.

Query: IC50; subject: COc1ccc(CNC(=O)CN(C(CCSCc2ccccc2)C(=O)NO)S(=O)(=O)c2ccc(OC)cc2)cc1 (stereo not given)
0.7 nM

How about this compound: COc1ccc(S(=O)(=O)N(CC(C)C)C(CCSCc2cccnc2)C(=O)NO)cc1 (stereo not given)
16.2 nM

How about this compound: COc1ccc(S(=O)(=O)N(CC(=O)NCc2cccnc2)C(CCSCc2ccccc2)C(=O)NO)cc1 (stereo not given)
1.1 nM

How about this compound: COc1ccc(S(=O)(=O)N(CC(C)C)C(CCSCc2ccsc2)C(=O)NO)cc1 (stereo not given)
5.1 nM

How about this compound: COc1ccc(S(=O)(=O)N(CC(=O)NCc2ccccc2)C(CCSCc2ccccc2)C(=O)NO)cc1 (stereo not given)
0.5 nM
